System: T. cruzi-infected H9C2 cardiomyocytes, high-content imaging
Test: intracellular T. cruzi amastigote inhibition, imaging, H9C2 host cardiomyocytes, host toxicity (AID 1159565);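 also: infected cells incubated 72 h after plating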
Details: measured here: H9C2 host cell toxicity
Consider the following compounds and their measured IC50 readings.
Use µM as the unit, but write only the number.

These recorded examples may help you get a feel for the data.
Nc1nc(-c2ccccn2)nc(-n2nc(-c3ccccc3)cc2N)n1 : 2
COc1ncc(-c2ccc3nccc(-c4ccncc4)c3c2)cc1NS(C)(=O)=O : 5
CN(Cc1nc2c(C(=O)N3CCN(Cc4ccccc4)CC3)cccc2[nH]1)C1CCCc2cccnc21 (configuration not stated) : 7.9
Cc1cc(NC(=O)C2CCCCC2)n(-c2nc3c(c(=O)[nH]2)CCC3)n1 : 2
COc1cccc(C(=O)[C@H]2C[C@@H]2CN(Cc2ccccn2)Cc2ccccn2)c1 : 20
NC(=O)c1ncccc1Nc1nc(NC2CCC(O)CC2)ncc1Br (configuration not stated) : 0.63
Cc1ccc(-c2csc(NC(=O)C=Cc3ccc(S(=O)(=O)N4CCOCC4)cc3)n2)o1 : 32
O=C(Nc1nc(-c2ccccn2)cs1)c1ccccc1-n1cnnn1 : 5

In plain terms, `NCc1ccc2c(Cl)cc(Cl)c(O)c2n1` has a documented IC50 of 6.3

Per the record, `NS(=O)(=O)c1ccc(Nc2ncc3cccc(OC4CCNCC4)c3n2)cc1` has IC50 of 0.63

Briefly, IC50 measured for `N#Cc1c(Oc2cccc(Cl)c2)cccc1[N+](=O)[O-]` : 16
